These entries and their values trace back to patent US20220144960A1.

Target of assay: T1, recombinant human CD30 extra cellular domain (ECD) protein (human, UniProt P28908 19-379)
T1 construct: Bought from R&D systems; also called rhCD30; human CD30 ECD
T1 sequence: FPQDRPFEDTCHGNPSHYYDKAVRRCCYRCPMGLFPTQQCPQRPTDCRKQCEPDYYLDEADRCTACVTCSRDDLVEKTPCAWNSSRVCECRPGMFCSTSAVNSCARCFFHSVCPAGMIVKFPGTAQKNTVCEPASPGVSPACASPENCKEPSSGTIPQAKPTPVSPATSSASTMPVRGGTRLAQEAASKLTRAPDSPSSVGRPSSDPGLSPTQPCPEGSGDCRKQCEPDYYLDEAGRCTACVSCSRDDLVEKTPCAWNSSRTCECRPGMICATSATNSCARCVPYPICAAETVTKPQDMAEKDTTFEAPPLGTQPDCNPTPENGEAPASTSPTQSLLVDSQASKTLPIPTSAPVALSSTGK
Test name: SPR Biacore T200, His-tagged sdAb/Fab captured, 100.0 nM human CD30 as analyte, single curve
Observation type: rhCD30 Binding (RU)

INSERT INTO measurements (binder, result_value) VALUES
  ('AS47863 sdAb (VHH, Camel sdAb) VHH: QVQLEESGGGSVQAGETLRLSCTASGSTFGDSDMGWYRQAPGNACELVSIISSDGRTYYVDSVKGRFTISQDNAVSTVYLQMNSLKPEDTGVYYCAADLRQYCRDGRCCGYWGQGTQVTVSS', 119),
  ('AS57765 human Fab (Fab, V domains shown, Human Fab from a synthetic human Fab library, crude protein from E. coli with 6xHistidine tag) VH: EVQLVESGGGLVQPGGSLRLSCAASGFNIYYSYMHWVRQAPGKGLEWVAYIYPYSGSTSYADSVKGRFTISADTSKNTAYLQMNSLRAEDTAVYYCARPAVHWHGYGGGYYYGLDYWGQGTLVTVSS VL: DIQMTQSPSSLSASVGDRVTITCRASQSVSSAVAWYQQKPGKAPKLLIYSASSLYSGVPSRFSGSRSGTDFTLTISSLQPEDFATYYCQQAYYSLITFGQGTKVEIK', 37.7),
  ('AS53750 sdAb (VHH, Camel sdAb) VHH: EVQLVESGGGLVQPGGSLRLSCTASGFTDDGPDMAWYRRAPGNECELVSIISADGRTYYTDSVKGRFTISRDNAKNTVFLYLNSLQPEDTAVYYCAPDPRRNCRGGDCCGNWGPGTQVTVSS', 284),
  ('AS57911 human Fab (Fab, V domains shown, Human Fab from a synthetic human Fab library, crude protein from E. coli with 6xHistidine tag) VH: EVQLVESGGGLVQPGGSLRLSCAASGFNISSSYIHWVRQAPGKGLEWVAYISSYYSYTYYADSVKGRFTISADTSKNTAYLQMNSLRAEDTAVYYCARGYPYGMDYWGQGTLVTVSS VL: DIQMTQSPSSLSASVGDRVTITCRASQSVSSAVAWYQQKPGKAPKLLIYSASSLYSGVPSRFSGSRSGTDFTLTISSLQPEDFATYYCQQSHALITFGQGTKVEIK', 44.6),
  ('AS48542 sdAb (VHH, Camel sdAb) VHH: QMQLVESGGGSVQAGETLRLSCTTSAFTFDGPDMAWYRQAPGNECVLVSIISADGRTYYADSVKGRFTISRDNAKNTVFLNLNSLQPEDTAVYYCALDPRKNCRGGYCCANWGPGTQVTVSS', 60.8);

(I) AS48508 sdAb (VHH, Camel sdAb) VHH: EVQLVESGGGSVQAGGSLRLSCTASRFTFDGPDMAWYRQAPGNACELVSIISADGRTYYTDSVKGRFTISRDNAKNTVFLYLNSLQPEDTAVYYCAPDPRRNCRGGYCCGNWGPGTQVTVSS
(II) AS48481 sdAb (VHH, Camel sdAb) VHH: EVQLVASGGGSVQAGETLRLSCTASGFTFADSAMGWYRKGPGNVCDLVAIIRTDGTTYYGDSAKGRFTISRDNAKSTLYLQMNSLKPEDTAVYFCAADRETSFIGGSWCVAKYWDQGTQVTVSS
Prompt: Of I versus II , which is the one with smaller reported rhCD30 Binding (RU)? Write down the label of the entry you select.
Completion: II
(II: 26.3 RU, I: 69.8 RU)
